- System: LC3B protein (recombinant) (UniProt Q9GZQ8 1-120)
- Procedure Text: NMR
pKd: −log10 of the molar value. Non-standard residues stand in square brackets, D forms with d. No end group written: not given here. pS = N[C@@H](COP(=O)(O)O)C(=O)O
Here, each record is paired with measured pKd data.

{"Binder": "EALN[pS]GVEYYWDQLNET [AMBRA1-LIR peptide, S1014 phosphorylated (P1)]", "pKd": 4.34}
{"Binder": "EALNSGVEYYWDQLNET [AMBRA1-LIR peptide, unphosphorylated (P0)]", "pKd": 3.71}
